system: CAKI-1 renal; assay: NCI-60 one-dose screen, 48 h (100 = growth as untreated, 0 = no growth, -100 = all killed); details: 10 µM unless noted
Compounds without any hit were thinned out: in the full panel of roughly 83,000, 20% have a hit. Active and inactive are the calls of the source. Rule for the calls: active = growth percent below 10; inactive = the rest.
observation-type: growth

Qu. Please tell me: growth of CCCCCCCCCCC(CN(CC)CC)C(O)c1ccccc1 (stereo unspecified) , system CAKI-1 renal?
Ans. 45.5% (inactive)

* * *

Reported growth is given for each of the following compounds.
system: SK-OV-3 ovarian; assay: NCI-60 one-dose screen, 48 h (100 = growth as untreated, 0 = no growth, -100 = all killed); conditions: 10 µM unless noted
This is part of a sample that, as a whole, favours compounds with a hit. Of some 83,000 tested, about 20% had one in any assay.
Give just the number in %; leave the unit off.

compound	unit-tag	growth
CCN(CC)Cc1cc(C=C2C(=O)NC(=S)NC2=O)cc(OC)c1O	%	111

Qu. Please tell me: growth of N#CSCC1CC(O)(c2ccccc2)CC(c2ccc(F)cc2)O1 (stereo not given) , system SK-OV-3 ovarian?
Ans. 52.7

Qu. Try the compound Nc1n[nH]c2ccc([C@H]3[C@@H]4C5CCC(C5)[C@@H]4c4c(ccc5[nH]ncc45)N3S(=O)(=O)C3CC3)cc12 (stereo not given in full)
Ans. 52.7

Qu. Try the compound COc1ccc(C(=O)c2cc3c(N)c(C(=O)Nc4ccc(C)cc4)sc3nc2C)cc1
Ans. 35.3

Qu. Try the compound COc1ccc(OC)c(Nc2nnc(-c3ccc(O)c(OC)c3)o2)c1
Ans. 53.4

Qu. Try the compound C=C1C(=O)O[C@H]2[C@H]1CC/C(Cn1cc(-c3ccccc3)nn1)=C\CC[C@@]1(C)O[C@@H]21
Ans. 107

Qu. Try the compound O=C1NC2(Nc3ccccc31)C(=O)Nc1c(Cl)cc(Cl)cc12 (stereo not given)
Ans. 107

Qu. Try the compound Cc1nc2sc(C(=O)Nc3cccc4ccccc34)c(N)c2cc1C(O)c1ccccc1 (stereo not given)
Ans. 8.83

Qu. Try the compound COc1ccc(-c2noc(C(=O)O)c2-c2cc(OC)c(OC)c(OC)c2)cc1
Ans. 23.5

Qu. Try the compound COc1ccc(/C=N/NC(=O)c2ccc(-n3cc(-c4ccccc4)nn3)cc2)cc1OC
Ans. 99.3

* * *

tested on: SK-MEL-28 melanoma; assay: NCI-60 one-dose screen, 48 h (100 = growth as untreated, 0 = no growth, -100 = all killed); settings: 10 µM unless noted
This is part of a sample that, as a whole, favours compounds with a hit. Of some 83,000 tested, about 20% had one in any assay.
Reported growth is given for each of the following compounds.
Give just the number in %; leave the unit off.

compound	reported-result
Cc1ccc(C)n1-c1ccccc1-n1c(C)ccc1C	93.6
COc1ccc(OC)c(-c2nc(SCC(=O)c3ccc(C#N)cc3)[nH]c(=O)c2C#N)c1	102

Qu. What value of measured growth is listed for CC(C)(C)[Si](C)(C)OC1[C@@H](CNC(=O)NC(=O)NC(N)=O)O[C@@H](n2cnc3c(NC(=O)Nc4ccccc4)ncnc32)[C@H]1O[Si](C)(C)C(C)(C)C (some centres undefined) ?
Ans. 63.5

Qu. Try the compound CCCCCN1C(=O)/C(=c2\sc3n(c2=O)C2C(NN=3)N(CC)C(=O)N2CC)c2ccccc21 (centres undefined)
Ans. 19.2

Qu. Try the compound CCN(CC)CC(O)COc1c(Br)c(Br)c(Br)c2c1OC(C)(C)C2 (centres undefined)
Ans. 64

Qu. Try the compound Cc1cc(C)c2c(c1)N(C)c1ncnc(-n3cnc4cc(C)ccc43)c1CC2C (centres undefined)
Ans. 62.9

Qu. Try the compound O=C(NCCNc1nccc(Nc2ccc(S(=O)(=O)Nc3ccccn3)cc2)n1)c1cccc([N+](=O)[O-])c1
Ans. 107

Qu. Try the compound O=C1NC(=O)C(Cc2ccc(OCc3ccc(-c4ccc(Cl)cc4Cl)cc3)cc2)S1 (centres undefined)
Ans. 65.3

Qu. Try the compound O=C(CSc1oc(-c2ccccc2)nc1S(=O)(=O)c1ccccc1)Nc1ccc(F)cc1
Ans. 98.4
